Condition parameters: human, plasma, 5 h
List of PPB values.
// units = %; emit number, no label

Nc1nc2ccc(OC(F)(F)F)cc2s1
97.13

*Q* So what's the measured PPB for this one? "CC1(C)[C@H](NC(=O)/C(=N\OCc2cc(=O)c(O)cn2O)c2csc(N)n2)C(=O)N1OS(=O)(=O)O"
*A* 69.12

*Q* So what's the measured PPB for this one? "COCCCC/C(=N\OCCN)c1ccc(C(F)(F)F)cc1"
*A* 75.55

*Q* So what's the measured PPB for this one? "OCCN1CCN(CCCN2c3ccccc3Sc3ccc(Cl)cc32)CC1"
*A* 98.51

* * *

Assay protocol: physchem
Condition parameters: octan-1-ol/water, pH 7.4, LogD7.4
Entries whose logD is below 2 take yes; entries at or above 2 take no.

Cc1ccc(C(=O)NC2CC2)cc1-c1ccc(C(=O)NCC2CC2)nc1
no
NC(=O)N1c2ccccc2C=Cc2ccccc21 [CARBAMAZEPINE]
yes
O=C(Nc1ccc(Oc2cccnc2)nc1)c1nnc(Nc2ccccc2F)o1
no

*Q* Threshold test, logD < 2: "Cc1ccc(-c2c[nH]cn2)cc1NC(=O)c1ccc(OCc2ccccn2)cc1"
*A* no

* * *

Assay protocol: physchem
Condition parameters: pH 7.4 buffer
Returns Satisfied if the recorded solubility thermodynamic is greater than or equal to 70 µM, and Not satisfied otherwise.

CN1CCN(CCOc2n[nH]c3ncnc(Nc4ccc(OCc5ccccn5)c(Cl)c4)c23)CC1
Not satisfied
O=CN(O)C1(CS(=O)(=O)N2CCN(c3ccc(F)cc3)CC2)CCC1
Satisfied
CSc1ccc(C(=O)C(C)(C)N2CCOCC2)cc1
Not satisfied
COc1cc2c(Nc3ccc(Cc4ccccc4)cc3)c(C#N)cnc2cc1OCCCN1CCOCC1
Not satisfied
CN(C)CC(O)COc1ccc(Nc2nccc(N(CC#N)c3cc(Cl)ccc3Cl)n2)cc1 (centres undefined)
Satisfied
CN(C(=O)Cc1ccc(S(C)(=O)=O)cc1)C1CCN(Cc2ccc(C(F)(F)F)cc2)CC1
Satisfied
CS(=O)(=O)c1ccc([C@@H](CC2CCCC2)C(=O)Nc2nccs2)cc1 [Ro-281675]
Not satisfied
COc1cc2ncnc(Nc3cccc(Cl)c3F)c2cc1CN(C)C1(C(N)=O)CN(C)C1
Not satisfied

Turning now to a further record.
*Q* Could you verify whether the entry "Cc1ccc(C(=O)N2CCC(C(=O)c3c(C)cc(C)cc3C)CC2)cc1" shows solubility thermodynamic of no less than 70 µM?
*A* Not satisfied

* * *

List of logD values.
Assay protocol: physchem
Condition parameters: octan-1-ol/water, pH 7.4, LogD7.4
Form rule: numeric answer, no unit written next to it.

Field: example entries. Status: answers known.
CCc1ccc(CCNCCCSCCNC[C@H](O)c2ccc(O)c3[nH]c(=O)sc23)cc1
0.86
CCOC(=O)Nc1ccc2c(c1)N(C(=O)CCN1CCOCC1)c1ccccc1S2
3.1
Cc1cn([C@H]2CCCN(S(=O)(=O)c3ccc(O)c(Oc4cccc(F)c4)c3)C2)c(=O)[nH]c1=O
1.6
O=c1c(-c2ccc3c(c2)OCO3)coc2cc(O)cc(O)c12
3.5
O=c1[nH]c2c(O)ccc([C@@H](O)CNCCc3cccc(CNCc4ccccc4Cl)c3)c2s1
1.85

*Q* So what's the measured logD for this one? "CN1CCN(c2ccc3ncc(C(N)=O)c(Nc4ccc(Cl)cc4Cl)c3c2)CC1"
*A* 3.23

*Q* So what's the measured logD for this one? "N#C/C(=C(\N)Sc1ccc(N)cc1)c1ccccc1C(F)(F)F"
*A* 3.4

*Q* So what's the measured logD for this one? "COc1cc(N2CCN(C(C)=O)CC2)ccc1Nc1ncc(Cl)c(-c2cnc3c(C)cccn23)n1"
*A* 3.2

*Q* So what's the measured logD for this one? "O=C1Nc2ccc(S(=O)(=O)N3CCC[C@H]3COc3ccccc3)cc2C1=O"
*A* 2.7

* * *

Assay protocol: physchem
Condition parameters: pH 7.4 buffer
Property name: log10(solubility thermodynamic) (log10 of the value in µM)
// stored as log10 of solubility thermodynamic expressed in µM

Field: example entries. Status: answers known.
CC(C)(C)NS(=O)(=O)c1cncc(-c2ccc3nc(NC(=O)NCC(=O)N4CCOCC4)nn3c2)c1
1.73
N#CCNC(=O)[C@@H]1CCCC[C@H]1C(=O)N1CCN(c2ccccc2)CC1
2.80

*Q* So what's the measured log10(solubility thermodynamic) for this one? Cc1cc(CN2Cc3ccccc3C2C(=O)Nc2ccc(Cl)cc2Cl)ccc1OCC(=O)O (stereo unspecified)
*A* 2.68

*Q* So what's the measured log10(solubility thermodynamic) for this one? "Clc1ccc(-c2nnc3cccc(Cl)n23)c(Cl)c1"
*A* 1.72

*Q* So what's the measured log10(solubility thermodynamic) for this one? "CC(C)Cn1c(=O)n(C)c(=O)c2cn(Cc3cccc4ccccc34)cc21"
*A* 0.00

*Q* So what's the measured log10(solubility thermodynamic) for this one? "COc1ccc(N2CCNCC2)cc1Nc1ncc(Cl)c(-c2cnc3ccccn23)n1"
*A* 1.84

*Q* So what's the measured log10(solubility thermodynamic) for this one? "N#Cc1cccnc1-c1ccc(C(=O)Nc2ccccc2N)cc1"
*A* 1.55

*Q* So what's the measured log10(solubility thermodynamic) for this one? "COc1ccc(-c2nc3n(c2Br)CCC3)cc1"
*A* 1.40

*Q* So what's the measured log10(solubility thermodynamic) for this one? "O=S(=O)(Nc1ccc(S(=O)(=O)Nc2nccs2)cc1)c1ccc2c(c1)OCCO2"
*A* -0.15

*Q* So what's the measured log10(solubility thermodynamic) for this one? "Cc1ccc(SCc2cc(=O)n(C)[nH]2)cc1"
*A* 3.18

*Q* So what's the measured log10(solubility thermodynamic) for this one? "O=C(N1CCN(c2ccncc2Cl)CC1)N1CCN(S(=O)(=O)c2ccc(C(F)(F)F)cc2)CC1"
*A* 0.59

*Q* So what's the measured log10(solubility thermodynamic) for this one? "CCN(c1ccnc(Nc2cc(N3CCOCC3)cc(N3CCOCC3)c2)n1)c1cc(CO)ccc1C"
*A* 1.86

* * *

Assay protocol: physchem
Property name: pKa

CCC(Oc1ccc(C(F)(F)F)cc1-c1ccc(S(=O)(=O)CC)cc1C)C(=O)O (stereo not given)
3.4
O=C(O)/C=C(/c1ccccc1)C(F)(F)F
2.41
O=C(O)C(c1ccccc1)N1CCC(CN2CCC(Oc3ccc(Cl)c(Cl)c3)CC2)CC1 (stereo not given)
3

Consider the additional molecule presented here.
*Q* So what's the measured pKa for this one? O=C(O)c1cc(=O)c2ccccc2[nH]1 [TRANSTORINE]
*A* 2.5

* * *

List of solubility thermodynamic values.
Assay protocol: physchem
Condition parameters: pH 7.4 buffer
// units = µM; emit number, no label

CC(C)(C)c1cc(=O)n(-c2ccccc2)[nH]1
708
COc1ccc(C)c(N(C)c2ccnc(Nc3cc(N4CCOCC4)cc(N4CCOCC4)c3)n2)c1
11.5
CC(C)n1c2ccccc2c2c(F)c(NC(=O)N3CCOCC3)c(F)cc21
4.6
COc1ccc(COc2nc(Br)cnc2NS(=O)(=O)c2ccc(C)cc2)cc1OCCN(C)C
77.6
O=C(Nc1nnc(C(=O)Nc2ccc(N3CCOCC3)cc2)o1)c1ccccc1
105

*Q* So what's the measured solubility thermodynamic for this one? "CNC(=O)c1ccc(C)c(-n2c(C)cc(OCc3ccc(F)cc3F)c(Br)c2=O)c1"
*A* 21.4

*Q* So what's the measured solubility thermodynamic for this one? "Nc1ncc(-c2cnn(C3CCNCC3)c2)cc1-c1nc2ccccc2o1"
*A* 2.3

*Q* So what's the measured solubility thermodynamic for this one? "COCCNS(=O)(=O)c1ccc(Nc2nccc(-c3cnc4ccccn34)n2)cc1"
*A* 0.7

*Q* So what's the measured solubility thermodynamic for this one? "N#CC1(NC(=O)[C@@H]2CCCC[C@H]2C(=O)N2CCc3[nH]c4c(F)cccc4c3C2)CC1"
*A* 479

*Q* So what's the measured solubility thermodynamic for this one? "CCN(CC)c1ncnc2c1ncn2Cc1c(Cl)cccc1Cl"
*A* 2.3

* * *

List of solubility thermodynamic values.
Assay protocol: physchem
Condition parameters: pH 7.4 buffer
Quick note: unit goes after the number.

Field: example entries. Status: answers known.
O=C(N[C@@H](Cc1ccccc1)C(=O)N1CCC(O)CC1)c1cc2cc(Cl)ccc2[nH]1
5.1 µM
O=C(c1ccccc1)C1CCN(C(=O)c2cccs2)CC1
79.4 µM
O=C(NC1CCCC1)C(c1ccncc1)N(Cc1ccco1)C(=O)c1ccc(-c2ccccc2)[nH]1 (stereo not given)
3.5 µM
CN1CCN(c2ccc3nc(-c4c(N)c5c(F)cccc5[nH]c4=O)[nH]c3c2)CC1
8.3 µM
CCN(C(=O)Cc1ccc(S(C)(=O)=O)cc1)C1CCN(CC[C@@H](c2cc(F)cc(F)c2)N2CCN(S(C)(=O)=O)CC2)CC1
1260 µM

*Q* So what's the measured solubility thermodynamic for this one? "CCCSc1c(C(=O)NC2CCCCC2)cnn1C"
*A* 1230 µM

*Q* So what's the measured solubility thermodynamic for this one? "O=C1COC2(CCN(S(=O)(=O)c3ccc(-c4ccc5cnccc5c4)cc3)CC2)CN1C1CC1"
*A* 2.2 µM

*Q* So what's the measured solubility thermodynamic for this one? "O=C(CNC(=O)c1ccc(Cl)cc1)c1ccc(Br)cc1"
*A* 0.5 µM

*Q* So what's the measured solubility thermodynamic for this one? "CCc1c[nH]nc1NC(=O)Cc1ccc(Oc2ccnc3cc(OC)ccc23)cc1OC"
*A* 7.4 µM

*Q* So what's the measured solubility thermodynamic for this one? "O=C(COc1ccccc1)c1ccccc1"
*A* 170 µM

*Q* So what's the measured solubility thermodynamic for this one? "O=C(CCCCCCC(=O)Nc1ccccc1)NO"
*A* 1230 µM
